# Method description: gradient 5% acetonitrile 3 min, to 50% in 2 min, to 85% in 15 min, held 3 min, 100 µL/min
# Test parameters: column: Zorbax Extend-C18 2.1 x 50 mm; eluents: water / acetonitrile, 0.1% formic acid
Use 700 s as the dividing line for RP-LC retention time, with the line itself on the Satisfied side and lower values as Not satisfied.

Challenge: Reported RP-LC retention time at or above 700 s? Cc1cccc2nnc(N3CCN(C(=O)c4ccsc4)CC3)n12
Response given: Not satisfied

Challenge: Reported RP-LC retention time at or above 700 s? Cc1ccccc1-c1noc(-c2cccnc2N2CCN(C)CC2)n1
Response given: Not satisfied

Challenge: Reported RP-LC retention time at or above 700 s? Cc1ccc(CNC(=O)c2ccc3ccnc(N4CCN(c5ccc(Cl)cc5)CC4)c3c2)o1
Response given: Satisfied

Challenge: Reported RP-LC retention time at or above 700 s? COc1ccc(OC)c(NC(=O)C(C)n2cnc3nc4c(cc3c2=O)CCCC4)c1 (centres undefined)
Response given: Satisfied

Challenge: Reported RP-LC retention time at or above 700 s? NC(=O)c1cnc(N[C@@H]2CCCC[C@@H]2N)nc1Nc1cccc(-n2nccn2)c1
Response given: Not satisfied

Challenge: Reported RP-LC retention time at or above 700 s? Cn1cc(S(=O)(=O)Nc2ccc(F)c(F)c2)c2cccnc21
Response given: Satisfied

Challenge: Reported RP-LC retention time at or above 700 s? COCCN1CCn2cc(S(=O)(=O)NCc3ccc(F)cc3Cl)cc2C1=O
Response given: Satisfied

Challenge: Reported RP-LC retention time at or above 700 s? Cn1c(=O)c(-c2c(Cl)cccc2Cl)cc2cnc(Nc3ccc(N4CCOCC4)cc3)nc21
Response given: Satisfied

Challenge: Reported RP-LC retention time at or above 700 s? O=C(NCc1ccccc1)NC1CCN(C(=O)N2C[C@H]3C[C@H](C2)[C@H]2CCCC(=O)N2C3)CC1
Response given: Not satisfied

Challenge: Reported RP-LC retention time at or above 700 s? CCc1cc(=O)n(CC(=O)Nc2cc(OC)ccc2OC)c(N2CCOCC2)n1
Response given: Satisfied

Challenge: Reported RP-LC retention time at or above 700 s? COc1ccc(N2C(=O)CCS2(=O)=O)cc1S(=O)(=O)N1CCC(C(N)=O)CC1
Response given: Not satisfied

Challenge: Reported RP-LC retention time at or above 700 s? O=C(CN1CC=C(c2cnn(-c3ccccc3)c2)CC1)N1CCOCC1
Response given: Not satisfied

Challenge: Reported RP-LC retention time at or above 700 s? COc1ccc(-c2nnc(-c3cc(S(=O)(=O)NCC(=O)O)ccc3Cl)o2)cc1
Response given: Satisfied

Challenge: Reported RP-LC retention time at or above 700 s? Cc1nnc2n1CCC(NC(=O)Cc1ccsc1)CC2 (centres undefined)
Response given: Not satisfied

Challenge: Reported RP-LC retention time at or above 700 s? Cc1cc(=O)n(CC(=O)N(C)c2ccccc2)c(N2CCOCC2)n1
Response given: Not satisfied

Challenge: Reported RP-LC retention time at or above 700 s? COCCCCC(=NOCCN)c1ccc(C(F)(F)F)cc1
Response given: Satisfied

Challenge: Reported RP-LC retention time at or above 700 s? Cc1cc(C(=O)NC2CC2)c2cc(C(C)C)ccc2n1
Response given: Not satisfied

Challenge: Reported RP-LC retention time at or above 700 s? COc1ccc(C(=O)Nc2cccc(-c3csc(C)n3)c2)nn1
Response given: Not satisfied

Challenge: Reported RP-LC retention time at or above 700 s? CCN1C(=O)c2cccnc2Sc2cc(NC(=O)c3cccnc3)ccc21
Response given: Not satisfied

Challenge: Reported RP-LC retention time at or above 700 s? O=C(Nc1nc(-c2ccc(Br)s2)cs1)c1ccc([N+](=O)[O-])s1
Response given: Satisfied

Challenge: Reported RP-LC retention time at or above 700 s? Cc1noc(C2CN(C(=O)c3ccc4ncsc4c3)C2)n1
Response given: Not satisfied

Challenge: Reported RP-LC retention time at or above 700 s? Cc1ccc(Nc2c(-c3ccc(C)cc3)nc3nc(C)cc(C)n23)cc1
Response given: Satisfied

Challenge: Reported RP-LC retention time at or above 700 s? O=C(c1cc(C2CC2)[nH]n1)N1CCn2c(nnc2-c2ccccc2)C1
Response given: Not satisfied

Challenge: Reported RP-LC retention time at or above 700 s? CC(C)(C)NC(=O)c1cc2c(n(-c3ccc(C(F)(F)F)cc3)c1=O)CCCC2=O
Response given: Satisfied

Challenge: Reported RP-LC retention time at or above 700 s? CCc1cc(=O)n(CC(=O)NCc2ccc(C)cc2)c(N2CCOCC2)n1
Response given: Satisfied

Challenge: Reported RP-LC retention time at or above 700 s? CCc1nc2onc(C)c2c(=O)n1CC(=O)NCc1ccccc1F
Response given: Satisfied

Challenge: Reported RP-LC retention time at or above 700 s? Cn1cc(CC(=O)NCc2cccc(Cl)c2)c2cccnc21
Response given: Satisfied

Challenge: Reported RP-LC retention time at or above 700 s? O=C(Cc1ccccc1F)Nc1ccc(-c2cn3c(C(=O)N4CCCC4)csc3n2)cc1
Response given: Satisfied

Challenge: Reported RP-LC retention time at or above 700 s? COCc1nnc2n1CCC(NC(=O)C1CC=CC1)CC2 (centres undefined)
Response given: Not satisfied

Challenge: Reported RP-LC retention time at or above 700 s? CCc1cnn2c(NCc3ccc[n+]([O-])c3)cc(N3CCCC[C@H]3CCO)nc12
Response given: Not satisfied

Challenge: Reported RP-LC retention time at or above 700 s? O=C(CCc1c(-c2ccc(F)cc2)nc2ccccn12)Nc1ccccc1F
Response given: Not satisfied

Challenge: Reported RP-LC retention time at or above 700 s? CCCCn1cc(S(=O)(=O)NCc2ccccc2)c2cccnc21
Response given: Satisfied

Challenge: Reported RP-LC retention time at or above 700 s? Cc1ccc(C)c(S(=O)(=O)N2CC(c3nc(Cc4ccccc4)no3)C2)c1
Response given: Satisfied

Challenge: Reported RP-LC retention time at or above 700 s? CN(C)C(=O)C1CCN(c2nc3ccc(-c4cccc(F)c4)nc3s2)CC1
Response given: Satisfied

Challenge: Reported RP-LC retention time at or above 700 s? CCC(c1cccs1)N1C(=O)[C@H]2CN(S(=O)(=O)c3ccc(OC)cc3)C[C@H]2C1=O (some centres undefined)
Response given: Satisfied
